# Test system: HDACs
# Protocol summary: In vitro HDACi assay (BIOMOL fluorescent-based HDAC activity assay)
# Type: biochemical
# Applied conditions: Table 4; read-out: HDAC enzyme inhibition activity IC50
Measured pIC50, listed per entry.
The value called pIC50 is obtained by taking minus log10 of the concentration in mol/L.

In the examples that follow, each entry is paired with its recorded pIC50.
[
  {
    "Compound": "CCN(CC)CCSc1ccc(/C=C/C(=O)NO)cc1[N+](=O)[O-]",
    "pIC50": 4.46
  },
  {
    "Compound": "CCN(CC)CCSc1ccc(/C=C/C(=O)NO)cc1NCc1ccccc1",
    "pIC50": 4.02
  },
  {
    "Compound": "CCCNc1cc(/C=C/C(=O)NO)ccc1SCCN(CC)CC",
    "pIC50": 4.72
  },
  {
    "Compound": "CCCCCNc1cc(/C=C/C(=O)NO)ccc1SCCN(CC)CC",
    "pIC50": 4.68
  },
  {
    "Compound": "CCN(CC)CCSc1ccc(/C=C/C(=O)NO)cc1NCCCc1ccccc1",
    "pIC50": 4.01
  },
  {
    "Compound": "CCN(CC)CCSc1ccc(/C=C/C(=O)NO)cc1NC(C)=O",
    "pIC50": 4.07
  }
]

# input for lookup
// compound CCCCc1nc2cc(/C=C/C(=O)NO)ccc2n1CCN(CC)CC [SB939, reference compound] , assay HDACs, pIC50 value: 4.74

###

# Target under test: HDAC6 (Homo sapiens (Human), UniProt Q9UBN7)
# Sequence (Q9UBN7 whole entry, species assumed): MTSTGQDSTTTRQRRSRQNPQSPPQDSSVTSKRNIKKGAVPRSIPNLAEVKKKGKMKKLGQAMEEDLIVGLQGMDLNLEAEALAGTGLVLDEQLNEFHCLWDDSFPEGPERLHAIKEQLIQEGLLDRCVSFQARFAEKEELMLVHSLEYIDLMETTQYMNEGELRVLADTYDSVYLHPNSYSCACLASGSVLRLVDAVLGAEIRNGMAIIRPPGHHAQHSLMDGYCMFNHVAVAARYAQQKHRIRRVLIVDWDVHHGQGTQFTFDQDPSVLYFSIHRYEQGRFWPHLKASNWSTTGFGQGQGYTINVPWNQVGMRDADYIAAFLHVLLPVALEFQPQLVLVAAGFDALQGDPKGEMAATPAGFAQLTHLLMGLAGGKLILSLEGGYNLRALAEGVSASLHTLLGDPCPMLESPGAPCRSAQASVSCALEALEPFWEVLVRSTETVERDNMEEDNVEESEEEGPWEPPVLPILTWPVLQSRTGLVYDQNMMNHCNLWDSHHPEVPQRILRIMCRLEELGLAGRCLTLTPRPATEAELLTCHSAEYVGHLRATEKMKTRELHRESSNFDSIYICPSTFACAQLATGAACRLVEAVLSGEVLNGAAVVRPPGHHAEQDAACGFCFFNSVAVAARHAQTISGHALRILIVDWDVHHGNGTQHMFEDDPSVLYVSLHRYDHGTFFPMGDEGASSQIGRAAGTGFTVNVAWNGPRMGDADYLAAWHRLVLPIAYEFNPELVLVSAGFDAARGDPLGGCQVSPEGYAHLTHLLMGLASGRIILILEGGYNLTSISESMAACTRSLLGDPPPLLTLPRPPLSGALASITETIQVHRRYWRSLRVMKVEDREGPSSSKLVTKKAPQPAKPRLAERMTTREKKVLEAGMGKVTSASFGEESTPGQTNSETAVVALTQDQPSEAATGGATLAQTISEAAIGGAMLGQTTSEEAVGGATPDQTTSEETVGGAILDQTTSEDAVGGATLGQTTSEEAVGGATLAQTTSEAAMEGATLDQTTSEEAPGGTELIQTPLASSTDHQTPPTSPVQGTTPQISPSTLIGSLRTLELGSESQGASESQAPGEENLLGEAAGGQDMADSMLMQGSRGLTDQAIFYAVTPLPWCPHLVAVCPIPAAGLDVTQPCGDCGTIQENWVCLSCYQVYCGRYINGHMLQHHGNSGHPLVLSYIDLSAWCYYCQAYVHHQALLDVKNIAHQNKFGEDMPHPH
# Protocol summary: In vitro HDACi assay, HDAC6
# Type: biochemical
# Applied conditions: Table 3; read-out: IC50 (nM) HDAC6
Recorded endpoint: IC50 (nM)
Give a bare numeral; the unit nM is implied.

In the examples that follow, each entry is paired with its recorded IC50.
[
  {
    "Compound": "CCN(CC)CCSc1ccc(/C=C/C(=O)NO)cc1[N+](=O)[O-] [Example 5]",
    "IC50, nM": 313
  },
  {
    "Compound": "CCN(CC)CCSc1ccc(/C=C/C(=O)NO)cc1NCCCc1ccccc1 [Example 1]",
    "IC50, nM": 627
  },
  {
    "Compound": "CCN(CC)CCSc1ccc(/C=C/C(=O)NO)cc1NC(C)=O [Example 4]",
    "IC50, nM": 357
  },
  {
    "Compound": "CCN(CC)CCSc1ccc(/C=C/C(=O)NO)cc1NC [Example 8]",
    "IC50, nM": 800
  },
  {
    "Compound": "CCCCCNC(=O)Nc1cc(/C=C/C(=O)NO)ccc1SCCN(CC)CC [Example 10]",
    "IC50, nM": 200
  },
  {
    "Compound": "CCCNc1cc(/C=C/C(=O)NO)ccc1SCCN(CC)CC [Example 3]",
    "IC50, nM": 653
  },
  {
    "Compound": "CCCCCNc1cc(/C=C/C(=O)NO)ccc1SCCN(CC)CC [Example 2]",
    "IC50, nM": 578
  },
  {
    "Compound": "CCN(CC)CCSc1ccc(/C=C/C(=O)NO)cc1NCc1ccccc1 [Example 6]",
    "IC50, nM": 275
  },
  {
    "Compound": "C=CCNc1cc(/C=C/C(=O)NO)ccc1SCCN(CC)CC [Example 7]",
    "IC50, nM": 350
  },
  {
    "Compound": "C=CCCCNc1cc(/C=C/C(=O)NO)ccc1SCCN(CC)CC [Example 12]",
    "IC50, nM": 310
  }
]

Reported IC50 of CCN(CC)CCSc1ccc(/C=C/C(=O)NO)cc1N [Example 9] : 295

The measurements presented in this section are drawn from patent US8921424B2.
